measurement_parameters: in methanol, 288.15 K

- molecule: "CSc1nc2cc(Oc3cccc(Cl)c3Cl)c(Cl)cc2[nH]1"
  solubility (mole fraction): 0.00565

====

measurement_parameters: in methanol, 318.15 K

- molecule: "CSc1nc2cc(Oc3cccc(Cl)c3Cl)c(Cl)cc2[nH]1"
  solubility (mole fraction): 0.017

====

measurement_parameters: in methanol, 283.15 K

- molecule: "CSc1nc2cc(Oc3cccc(Cl)c3Cl)c(Cl)cc2[nH]1"
  solubility (mole fraction): 0.00458

====

measurement_parameters: in n-pentyl acetate, 293.15 K

- molecule: "CSc1nc2cc(Oc3cccc(Cl)c3Cl)c(Cl)cc2[nH]1"
  solubility (mole fraction): 0.0277

These measurements were taken from BigSolDB 2.1.
